experimental-system: b-Raf (V600E) (Homo sapiens (Human), UniProt P15056, V600E)
Sequence (P15056 whole entry V600E): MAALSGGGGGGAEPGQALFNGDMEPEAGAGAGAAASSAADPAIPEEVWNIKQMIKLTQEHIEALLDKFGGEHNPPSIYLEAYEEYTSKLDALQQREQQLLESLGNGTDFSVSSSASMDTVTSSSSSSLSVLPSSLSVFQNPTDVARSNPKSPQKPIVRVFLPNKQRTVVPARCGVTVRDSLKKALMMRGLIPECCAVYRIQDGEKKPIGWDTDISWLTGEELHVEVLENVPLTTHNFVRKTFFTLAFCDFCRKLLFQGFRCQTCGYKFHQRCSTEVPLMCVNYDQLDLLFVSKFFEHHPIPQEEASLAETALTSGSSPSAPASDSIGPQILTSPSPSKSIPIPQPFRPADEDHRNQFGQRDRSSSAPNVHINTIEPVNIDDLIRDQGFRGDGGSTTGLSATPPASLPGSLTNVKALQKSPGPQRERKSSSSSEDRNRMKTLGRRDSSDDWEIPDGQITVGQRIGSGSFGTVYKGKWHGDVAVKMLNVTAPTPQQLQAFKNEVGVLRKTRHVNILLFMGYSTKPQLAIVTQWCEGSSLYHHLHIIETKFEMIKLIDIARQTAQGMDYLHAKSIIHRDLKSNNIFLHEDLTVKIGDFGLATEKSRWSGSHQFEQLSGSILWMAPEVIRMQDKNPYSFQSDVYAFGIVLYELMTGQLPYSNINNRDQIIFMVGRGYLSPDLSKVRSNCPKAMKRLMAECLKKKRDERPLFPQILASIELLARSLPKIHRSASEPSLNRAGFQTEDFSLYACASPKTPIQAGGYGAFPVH
run-parameters: read-out: b-Raf IC-50; Table 2; AlphaScreen, 3 hours reaction
observable: pIC50
Scale: pIC50 equals -log10([C]), with [C] in mol/L.

Here's what some known entries look like.
Cc1ccc(NC(=O)c2cccc(C(F)(F)F)c2)cc1-c1cc(N2CCOCC2)nc(OCCO)n1 [Example 40] : 9.10
Cc1nc(C(=O)Nc2cnc(C)c(-c3cc(N4CCOCC4)c(=O)n(C)c3)c2)c(C)o1 [Example 383] : 5.55

// query Which pIC50 value is on record for Cc1ncc(NC(=O)c2ccnc(C(F)F)c2)cc1-c1cc(N2CCOCC2)c(=O)n(C)c1 [Example 392] ?
// result 7.82

###

experimental-system: b-Raf (V600E) (Homo sapiens (Human), UniProt P15056, V600E)
run-parameters: read-out: b-Raf IC-50; AlphaScreen, 60 min pre-incubation, reaction 3 hours at room temperature
The entries below are paired with their reported IC50.
Please respond with the number in nM and leave the unit unwritten.

Answered examples (5):
Cc1ncc(NC(=O)c2ccnc(C(F)F)c2)cc1-c1cnc(OC(F)F)c(N2CCOCC2)c1 : 2.44
Cc1ncc(NC(=O)c2cnnc(C(F)(F)F)c2)cc1-c1cc(N2CCOCC2)nc(N2CC(C)(O)C2)c1 : 13.4
Cc1ccc(NC(=O)c2ccnc(C(C)(C)F)c2)cc1-c1cc(NC[C@@H](C)O)nc(N2CCOCC2)n1 : 12.7
Cc1ccc(NC(=O)c2cc(C(C)(C)O)ccn2)cc1-c1cnc(OC(C)C)c(N2CCOCC2)c1 : 3.63
Cc1ccc(NC(=O)c2ccnc(C(F)F)c2)cc1-c1cc(N2CCOCC2)nc(N2CC(C)(O)C2)c1 : 1.74

Below: the item to evaluate.
// query So what does the record say about IC50 for Cc1ccc(NC(=O)c2ccnc(C(C)(C)F)c2)cc1-c1cnc(OCCO)c(N2CCOCC2)c1 ?
// result 2

###

experimental-system: b-Raf (V600E) (Homo sapiens (Human), UniProt P15056, V600E)
run-parameters: read-out: b-Raf IC-50; AlphaScreen, 60 min pre-incubation, 3 hours reaction
Attribute: IC50
Give a bare numeral; the unit nM is implied.

Here's what some known entries look like.
Cc1ccc(NC(=O)c2cc(CN)cc(C(F)(F)F)c2)cc1-c1cc(N2CCOCC2)c(=O)n(C)c1 : 4.5
Cc1ccc(C(=O)Nc2cccc(C(F)(F)F)c2)cc1-c1cc(N2CCOCC2)n(C)c(=O)c1 : 1.2
Cc1ncc(NC(=O)c2ccnc(C(C)(C)C#N)c2)cc1-c1cc(N2CCOCC2)nc(N[C@H](C)CO)n1 : 19

// below: IC50 requested for another molecule
// query For Cc1ncc(NC(=O)c2ccnc(C(C)(F)F)c2)cc1-c1cc(N2CCO[C@H](CO)C2)n(C)c(=O)c1 , what is its reported IC50?
// result 51.3

###

# IC50 values compiled below
experimental-system: b-Raf (V600E) (Homo sapiens (Human), UniProt P15056, V600E)
run-parameters: read-out: b-Raf IC-50; AlphaScreen, 60 min pre-incubation, reaction 3 hours at room temperature
Quick reminder: number only, in nM, skip the unit.

Cc1ncc(NC(=O)c2ccnc(C(F)F)c2)cc1-c1cc(N2CCOCC2)nc(N2CC(C)(O)C2)c1 : 6.7
Cc1ncc(NC(=O)c2cnnc(C(F)(F)F)c2)cc1-c1cc(NCCO)nc(N2CCOCC2)c1 : 8.19
Cc1ncc(NC(=O)c2ccnc(C3CC3)c2)cc1-c1cnc(OC2CCOCC2)c(N2CCOCC2)c1 : 2.28
Cc1ncc(NC(=O)c2cccc(C(F)F)c2)cc1-c1cc(N2CCOCC2)nc(N2CC(O)C2)c1 : 4.64
Cc1ccc(NC(=O)c2cccc(C(F)(F)F)c2)cc1-c1cc(NCC(C)(C)O)nc(N2CCOCC2)c1 : 0.98

// query What value of IC50 has been reported for the following compound? Cc1ncc(NC(=O)c2ccnc(C(C)C)c2)cc1-c1cc(N2CCOCC2)c2nccn2c1
// result 8.1

// query I am curious: what IC50 value has been reported for Cc1ccc(NC(=O)c2cnnc(C3CC3)c2)cc1-c1cc(OCCO)nc(N2CCOCC2)c1 ?
// result 0.38

###

# key: entry, value: pIC50
experimental-system: b-Raf (V600E) (Homo sapiens (Human), UniProt P15056, V600E)
run-parameters: read-out: b-Raf IC-50; AlphaScreen, 60 min pre-incubation, 3 hours reaction
# pIC50 = -log10(concentration in molar units)

CCNc1nc(-c2cc(NC(=O)c3ccnc(C(C)(C)C#N)c3)cnc2C)cc(N2CCOCC2)n1 [Example 718] : 8.08
Cc1ncc(NC(=O)c2ccnc(C(C)(C)C#N)c2)cc1-c1cc(N2CCOCC2)nc(N[C@@H](C)CO)n1 [Example 744] : 7.37
Cc1ccc(NC(=O)c2ccnc(C(C)C)c2)cc1-c1cc(N2CCOCC2)c2nccn2n1 [Example 842] : 8.89
Cc1ccc(NC(=O)c2ccnc(C(C)(C)C#N)c2)cc1-c1cc(N2CCOCC2)n2nccc2n1 [Example 792] : 8.77
Cc1ccc(NC(=O)c2cnnc(C(F)(F)F)c2)cc1-c1cc(N2CCOCC2)c(=O)n(C)n1 [Example 647] : 8.28
Cc1ccc(NC(=O)c2ccnc(C3CC3)c2)cc1-c1cc(N2CCOCC2)n(C)c(=O)c1 [Example 477] : 9.40

// query Give the measured pIC50 of Cc1ncc(NC(=O)c2ccnc(C3CC3)c2)cc1-c1cc(N2CCOCC2)n(C)c(=O)c1 [Example 511] .
// result 8.19

// query Would you mind telling me what pIC50 value was observed for Cc1ccc(NC(=O)c2ccnc(C(C)(C)C#N)c2)cc1-c1cc(N2CCOC(C)(C)C2)c(=O)n(C)n1 [Example 666] ?
// result 8.11

// query What value of measured pIC50 is listed for Cc1ncc(NC(=O)c2cc(CN(C)C)cc(C(F)(F)F)c2)cc1-c1ccc(C#N)c(N2CCOCC2)c1 [Example 685] ?
// result 7.67

// query Data request, read-out pIC50, for Cc1ccc(NC(=O)c2cccc(C(F)(F)F)c2)cc1-c1cc(N2CCOCC2=O)c(=O)n(C)c1 [Example 451]
// result 7.08

// query Consider the compound Cc1ccc(NC(=O)c2ccnc(C(C)(F)F)c2)cc1-c1cc(N2CCOC[C@@H]2C)c(=O)n(C)n1 [Example 664] and give its measured pIC50.
// result 8.54

###

experimental-system: b-Raf (V600E) (Homo sapiens (Human), UniProt P15056, V600E)
run-parameters: read-out: b-Raf IC-50; AlphaScreen, 60 min pre-incubation, 3 hours reaction
List of IC50 values.
Lab book: enter the figure in nM, no units written.

Use these answered entries as a reference point.
Cc1ccc(NC(=O)c2ccnc(C(C)(C)O)c2)cc1-c1cc(N2CCOCC2)c(OC2CCOCC2)nn1 : 2.2
CCNc1nc(-c2cc(NC(=O)c3ccnc(C(C)(F)F)c3)ccc2C)cc(N2CCOCC2)n1 : 1
CCNc1nc(-c2cc(NC(=O)c3ccccc3)ccc2C)cc(N2CCOCC2)n1 : 4
Cc1ncc(NC(=O)c2ccnc(C(C)C)c2)cc1-c1ccc(C#N)c(N2CCOCC2)c1 : 1.7
COCCN(C)c1cc(C(=O)Nc2ccc(C)c(-c3cc(N4CCOCC4)c(=O)n(C)c3)c2)ccn1 : 2.8
Cc1ncc(NC(=O)c2ccnc(C(C)(C)C#N)c2)cc1-c1cc(N2CCOCC2)nc(NC2(CO)CCOCC2)n1 : 30.9

// query Could you share which IC50 value was measured for CCC(F)(F)c1cc(C(=O)Nc2cnc(C)c(-c3cc(N4CCOCC4)c(OC)nn3)c2)ccn1 ?
// result 4.7

// query Fill blank: measured IC50 of the compound Cc1ccc(NC(=O)c2cccc(C(F)F)c2)cc1-c1cc(N2CCOCC2)c(=O)n(C)n1 is ____.
// result 2.2

###

The entries below come with measured log10(IC50) values attached.
experimental-system: b-Raf (V600E) (Homo sapiens (Human), UniProt P15056, V600E)
run-parameters: read-out: b-Raf IC-50; AlphaScreen, 60 min pre-incubation, 3 hours reaction
Give log10 of IC50, with IC50 taken in nM.

Cc1ccc(NC(=O)c2ccnc(C(C)(C)C#N)c2)cc1-c1cc(N2CCOCC2)nc(N[C@H](C)CO)n1 : 0.28

Consider the additional compound presented here.
// query Could you share which log10(IC50) value was measured for Cc1ncc(NC(=O)c2cccc(C(F)(F)F)c2)cc1-c1cc(N2CCOCC2)nc(N[C@@H](C)CO)n1 ?
// result 0.56

###

experimental-system: b-Raf (V600E) (Homo sapiens (Human), UniProt P15056, V600E)
run-parameters: read-out: b-Raf IC-50; AlphaScreen, 60 min pre-incubation, 3 hours reaction
observable: IC50 (nM)
Give just the number in nM; leave the unit off.

Cc1ccc(NC(=O)c2ccnc(C(C)(C)C#N)c2)cc1-c1cc(N2CCOCC2)nc(NC2CNC2)n1 : 14.9
Cc1ccc(NC(=O)c2ccnc(C(C)(C)F)c2)cc1-c1cc(C2CCOCC2)c(=O)n(C)n1 : 2.4
CCOc1nnc(-c2cc(NC(=O)c3ccnc(C(C)C)c3)cnc2C)cc1N1CCOCC1 : 2.6

Proceeding to the next molecule to report its IC50.
// query So what's the measured IC50 for this one? CCOc1nc(-c2cc(NC(=O)c3ccnc(C(C)(F)F)c3)ccc2C)cc(N2CCOCC2)n1
// result 0.9
